Answer each item with its documented normalized growth.
PROTOCOL DETAILS: chemical genetic growth profiling, strain panel (AID 1159580);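 note: tested at 20 µM; growth read once vehicle control cultures reached saturation at 30 °C; 1 = growth at the plate median or of vehicle wells; lower values mean less growth of the strain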
CONDITION DESCRIPTION: S. cerevisiae deletion strains, growth OD, locus YPL209C, strain IPL1, hits give low values
Out of some 5,500 compounds screened, about 2,000 (36%) were called active. Another 18% or so got no clear call; they are omitted. This is one part of the list.
Give bare numbers.

Fill in normalized growth for each of the 5 compounds listed.
1. COc1ccc(OC)c(-c2ccn[nH]2)c1OCc1ccccc1
2. O=C1CSC(c2ccc(C(F)(F)F)cc2)N1c1ccc(C(F)(F)F)cc1 (stereo not given)
3. CC(C)(C)C(=O)/C(C#N)=C/c1c(Cl)cccc1Cl
4. CNC(=O)n1nc(C)c(Cc2csc3ccc(Cl)cc23)c1C
5. S=C(NNc1ccccc1)Nc1cc(Cl)ccc1Cl

Completion:
1. 0.994
2. 1.01
3. 0.495
4. 0.993
5. 0.964

----------
PROTOCOL DETAILS: chemical genetic growth profiling, strain panel (AID 1159580)
CONDITION DESCRIPTION: S. cerevisiae deletion strains, growth OD, locus YJR043C, strain POL32
Screen size: about 5,500 compounds; about 2,000 (36%) were called active. Another 18% or so got no clear call; they are omitted. Rule as the data show it: active = normalized growth mostly below about 0.91 (no sharp cut-off); inconclusive = no clear call, values can overlap the other calls; inactive = mostly above about 0.92. The list shows a part of the results.
Assign a class; possible classes are Y for active, N for inactive

Prompt: # outcome recorded in this test, key = Cc1cccc(Nc2ccncc2S(=O)(=O)NC(=O)NC(C)C)c1
Completion: N

Prompt: I'd appreciate the recorded outcome for N[C@@H]1[C@@H](O)[C@H](O)[C@@H](CO)O[C@H]1O from this test.
Completion: N

Prompt: Hi, sorry to bother you, what did the test record for Cc1ccc2cc(NC(=O)c3ccco3)ccc2n1 ?
Completion: N

Prompt: How was OC1(c2ccc(Cl)cc2)CSc2nc3cc(C(F)(F)F)ccc3n21 (centres undefined) classified in this test?
Completion: N

Prompt: What did this assay record as the result for COc1ccc(C=Nc2ccc(O)cc2)cc1 ?
Completion: N

Prompt: Would you mind telling me which call this test gave CN(C)CCC(c1ccc(Br)cc1)c1ccccn1 (centres undefined) ?
Completion: N

Prompt: So what was the verdict on CCCC(C(=O)OCCN(CC)CC)(c1ccccc1)c1ccccc1 in this test?
Completion: N

Prompt: Each compound tested received a call. Report the one for Cc1cc(NS(=O)(=O)c2ccc(NS(=O)(=O)c3ccc(Cl)cc3)cc2)no1 .
Completion: N

Prompt: Tell me the recorded outcome of this test for COc1cc([C@H]2Oc3cc([C@H]4Oc5cc(O)cc(O)c5C(=O)[C@@H]4O)ccc3O[C@@H]2CO)ccc1O .
Completion: N

Prompt: Could you kindly confirm the outcome this assay logged for CC(CN1c2ccccc2Sc2cccnc21)N(C)C (centres undefined) ?
Completion: N

Prompt: Given Cc1ccc2c(c1)N(CCO)C(C)(C)CC2C (centres undefined) , state the outcome it received in this test.
Completion: N

Prompt: Hi, do you know how COc1ccc(C=C2C(=O)NC(=S)NC2=O)cc1Br came out in this test?
Completion: N

Prompt: How did this test come out for NS(=O)(=O)c1cc2c(cc1Cl)NC(C1CC3C=CC1C3)NS2(=O)=O (centres undefined) ?
Completion: N

Prompt: Test call, this compound: CC(=O)Nc1ccc(S(=O)(=O)Nc2ncccn2)cc1
Completion: N

Prompt: Given Cc1nc2ccccn2c(=O)c1CCN1CCC(C(=O)c2ccc(F)cc2)CC1 , state the outcome it received in this test.
Completion: N

Prompt: Record lookup: outcome of this test for CC(=O)O[C@H]1CC[C@]2(C)C3=CC(=O)[C@@]4(C)C(C[C@@H]5OC6(OCC(C)CC6Br)[C@@H](C)[C@@H]54)C3CC[C@H]2C1 (some centres undefined) ?
Completion: N

Prompt: Recorded test outcome, item Cc1cc(CN2CC(C)OC(C)C2)cc(C)c1O (centres undefined)
Completion: N

Prompt: For CC1=C2[C@H]3OC(=O)[C@@H](C)[C@@H]3CC[C@@]2(C)C=CC1=O , what call appears in the results of this test?
Completion: N

Prompt: Can you look up the reported call for Cc1ccc(/C(N)=N\O)cc1F for me?
Completion: N

Prompt: Returns: the outcome recorded for CNC(=O)Oc1ccc2c(c1)[C@]1(C)CCN(C)[C@@H]1N2C in this assay.
Completion: N

----------
PROTOCOL DETAILS: chemical genetic growth profiling, strain panel (AID 1159580)
CONDITION DESCRIPTION: S. cerevisiae deletion strains, growth OD, locus YPR119W, strain clb2, hits give low values
Out of some 5,500 compounds screened, about 2,000 (36%) were called active. Not shown: some 18% with an inconclusive outcome. This is one part of the list.
Exercise: for every item that follows, state its recorded normalized growth.
Answers are plain numbers.

Worked examples, 2 molecules total:
MOLECULE	REPORTED ENDPOINT	VAL
COc1cc2c(cc1O)C(Cc1ccc(O)cc1)N(C)CC2 (stereo not drawn)	normalized growth	0.991
Cc1nc2sccn2c(=O)c1CCN1CCC(=C(c2ccc(F)cc2)c2ccc(F)cc2)CC1	normalized growth	1.01

Value sought for every listed molecule: normalized growth.
1. COC(=O)CCCOc1ccc(Cl)cc1Cl
2. O=c1cc(-c2cc(O)c(O)c(O)c2)oc2cc(O)cc(O)c12

Completion:
0.995
1.01

Batch request: normalized growth for each of the following molecules.
1. COc1cc(C(=O)O)c2c(c1C)OC(=O)c1c(C)cc(O)c(C=O)c1O2
2. CCC(=O)Nc1ccc(Cl)c(Cl)c1
3. CCN(CC)C(C)CN1c2ccccc2Sc2ccccc21 (stereo not drawn)
4. COc1cc2c(cc1-c1cc3cc4ccoc4cc3oc1=O)OCO2
5. CC(=O)Nc1nnc(S(N)(=O)=O)s1

Completion:
1. 0.977
2. 1
3. 0.954
4. 0.966
5. 1.01

Could you tell me normalized growth for each of these molecules? They are listed below.
1. CC(CN1c2ccccc2Sc2ccccc21)N(C)C (stereo not drawn)
2. O=c1cc(-c2ccccc2)oc2cc(O)cc(O)c12
3. CCN(CC)CCOC(=O)C(c1ccccc1)c1ccccc1
4. CN(C)CCOC(=O)C(c1ccccc1)C1(O)CCCC1 (stereo not drawn)

Completion:
1. 0.971
2. 0.937
3. 1
4. 1.01

----------
PROTOCOL DETAILS: chemical genetic growth profiling, strain panel (AID 1159580);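 note: tested at 20 µM; growth read once vehicle control cultures reached saturation at 30 °C; 1 = growth at the plate median or of vehicle wells; lower values mean less growth of the strain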
CONDITION DESCRIPTION: S. cerevisiae deletion strains, growth OD, locus YMR078C, strain ctf18, hits give low values
The campaign covered roughly 5,500 compounds. About 2,000 (36%) were called active. Roughly 18% stayed inconclusive and do not appear here. Some of the results follow.
For each of the compounds below, state its normalized growth.
Answers are plain numbers.

Examples with their reported normalized growth follow.
COMPOUND	VAL
CCCCC[C@H](CC(=O)NO)C(=O)N[C@H](C(=O)N1CCC[C@H]1CO)C(C)C	1.02
CO[C@]12C[C@@H](COC(=O)c3cncc(Br)c3)CN(C)[C@@H]1Cc1cn(C)c3cccc2c13	1
COc1c2ccccc2nc2occc12	0.974

Need normalized growth for each of these compounds.
1. COc1ccc(C(=O)N2CCCC2=O)cc1
2. Cc1cc(=O)oc2c(O)c(O)ccc12
3. C[C@]12C=CC(=O)C=C1CCC1C3C[C@@H](O)[C@](O)(C(=O)CO)[C@@]3(C)C[C@H](O)[C@@]12F (stereo partly specified)

Completion:
0.974
0.976
0.989

----------
PROTOCOL DETAILS: chemical genetic growth profiling, strain panel (AID 1159580);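 note: tested at 20 µM; growth read once vehicle control cultures reached saturation at 30 °C; 1 = growth at the plate median or of vehicle wells; lower values mean less growth of the strain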
CONDITION DESCRIPTION: S. cerevisiae deletion strains, growth OD, locus YAL026C, strain drs2, hits give low values
About 2,000 (36%) of roughly 5,500 compounds were called active. About 18% were inconclusive and are not listed. This is one part of the list.
REPORTED ENDPOINT: normalized growth
Answers are plain numbers.

The following compounds have reported results that may help.
COMPOUND	normalized growth
CCCC(C(=O)OCCN(CC)CC)(c1ccccc1)c1ccccc1	1.01
Cc1nc2ccccn2c(=O)c1CCN1CCC(C(=O)c2ccc(F)cc2)CC1	1
NCC(CC(=O)O)c1ccc(Cl)cc1 (configuration not stated)	0.997
C=C[C@H]1CN2CC[C@H]1C[C@@H]2[C@H](O)c1ccnc2ccccc12	0.994
CN(C)CCC(c1ccc(Br)cc1)c1ccccn1 (configuration not stated)	0.996
CCN(CC)CCOC(=O)C(c1ccccc1)c1ccccc1	0.975

Next, consider the following compound.
Prompt: Name the recorded normalized growth for N[C@H](Cc1cc(I)c(Oc2ccc(O)c(I)c2)c(I)c1)C(=O)O .
Completion: 0.982

----------
PROTOCOL DETAILS: chemical genetic growth profiling, strain panel (AID 1159580);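 note: tested at 20 µM; growth read once vehicle control cultures reached saturation at 30 °C; 1 = growth at the plate median or of vehicle wells; lower values mean less growth of the strain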
CONDITION DESCRIPTION: S. cerevisiae deletion strains, growth OD, locus YNL307C, strain MCK1, hits give low values
The whole screen tested about 5,500 compounds, of which about 2,000 (36%) were called active. Roughly 18% stayed inconclusive and do not appear here. Some of the results follow.
REPORTED ENDPOINT: normalized growth
One number for each entry.

Completed entries (count: 7):
COMPOUND	normalized growth
CC1CCC2(OC1)OC1CC3C4CCC5C[C@@H](O)CCC5(C)C4=CCC3(C)C1[C@@H]2C (stereo partly drawn)	0.982
Cc1cc(O)c(C=O)c2c1C(=O)Oc1c(COC(=O)/C=C/C(=O)O)c(O)c(C(=O)O)c(C)c1O2	0.98
CN1CCN(C2=Nc3ccccc3Oc3ccc(Cl)cc32)CC1	0.986
COc1cc([C@@H]2c3cc4c(cc3[C@H](OC(C)=O)[C@H]3COC(=O)[C@@H]23)OCO4)cc(OC)c1OC	1.02
COc1cc(C(=O)O)c2c(c1C)OC(=O)c1c(C)cc(O)c(C=O)c1O2	0.989
C[C@]12C=CC(=O)C=C1CCC1C3C[C@@H](O)[C@](O)(C(=O)CO)[C@@]3(C)C[C@H](O)[C@@]12F (stereo partly drawn)	0.975
CC(=O)O[C@H]1CC[C@]2(C)C3C(=O)[C@@H](OC(C)=O)[C@@]4(C)C(C[C@@H]5O[C@]6(CCC(C)CO6)[C@@H](C)[C@@H]54)C3CC[C@H]2C1 (stereo partly drawn)	0.986

Prompt: Need normalized growth of CC(=O)O[C@H]1CC[C@]2(C)C3=CC(=O)[C@@]4(C)C(C[C@@H]5OC6(OCC(C)CC6Br)[C@@H](C)[C@@H]54)C3CC[C@H]2C1 (stereo partly drawn) , thanks.
Completion: 0.993
